Experiment: VALA_TUBIPS_Agonist_CellCount: Viability Assessment in the VALA Sciences human iPS-derived Endothelial Tubule Formation (TUBIPS) Agonism Assay (AID 2284338)
Inconclusive results are not listed. The source made the active and inactive calls. The calls were made as follows: active = hit-call score of the fitted dose curve at least 0.9, where 1 is the maximum; inconclusive = response in the unintended direction; inactive = score below 0.9.
Outcome codes: yes for active, no for inactive

compound	assignedLabel
Nc1nc(Cl)nc2c1ncn2[C@H]1C[C@H](O)[C@@H](CO)O1	yes
CCCCC(CC)COP(=O)(OCC(CC)CCCC)OCC(CC)CCCC (stereo not given)	yes
Cc1ccc(-c2cc(C(F)(F)F)nn2-c2ccc(S(N)(=O)=O)cc2)cc1	no
COC(=O)[C@H]1[C@H]2C[C@@H]3c4[nH]c5cc(OC)ccc5c4CCN3C[C@H]2C[C@@H](OC(=O)c2cc(OC)c(OC)c(OC)c2)[C@@H]1OC	no
O=C1OC(c2ccc(O)cc2)(c2ccc(O)cc2)c2ccccc21	no
